# System: Escherichia coli TOP10
# assayExplanation: shrunken log2 fold change of peptide-encoding DNA abundance (4.5 h post-induction vs induction); higher = less antimicrobial activity (less host growth inhibition)
# assaySetup: time post-induction: 4.5 h; library: site-saturation at positions 5, 18, 19, 20
Measured shrunken log2 fold change accompanies every entry in the list below.
Lab note: write the figure by itself, no unit.

**Q:** # lookup: shrunken log2 fold change of RRIRKRPPRLPRPRPRPNRWPRP
**A:** 0.398

**Q:** Name the reported shrunken log2 fold change value associated with the sequence RRIRKRPPRLPRPRPRPQDMPRP
**A:** -0.036

**Q:** Entry under review: RRIRPRPPRLPRPRPRPLELPRP . Reported shrunken log2 fold change?
**A:** 0.0125

**Q:** Field request: shrunken log2 fold change | item: RRIRDRPPRLPRPRPRPEEHPRP
**A:** 0.937

**Q:** # get_value(readout='shrunken log2 fold change', item= RRIRERPPRLPRPRPRPNTDPRP )
**A:** -0.554

**Q:** Which shrunken log2 fold change reading was recorded for the sequence RRIRTRPPRLPRPRPRPQLYPRP ?
**A:** -0.0657

**Q:** Need shrunken log2 fold change, item RRIRTRPPRLPRPRPRPAWFPRP
**A:** 0.131

**Q:** Can you look up the measured shrunken log2 fold change of RRIRVRPPRLPRPRPRPERIPRP for me?
**A:** -0.00978

###

# Tested on: Escherichia coli TOP10
# assayExplanation: shrunken log2 fold change of peptide-encoding DNA abundance (4.5 h post-induction vs induction); higher = less antimicrobial activity (less host growth inhibition)
# assaySetup: time post-induction: 4.5 h; library: site-saturation at positions 5, 18, 19, 20
# shrunken log2 fold change listing for each entry below
Simply state the number, no unit and no words.

1) RRIRVRPPRLPRPRPRPFKTPRP: 0.146
2) RRIRKRPPRLPRPRPRPRQHPRP: 0.499
3) RRIRHRPPRLPRPRPRPTNKPRP: -0.557
4) RRIRRRPPRLPRPRPRPYHDPRP: -0.266
5) RRIRMRPPRLPRPRPRPGHTPRP: 0.488

**Q:** Fill in: shrunken log2 fold change of RRIRPRPPRLPRPRPRPGAVPRP is ___
**A:** 0.379

**Q:** Which shrunken log2 fold change is reported for this sequence? RRIRLRPPRLPRPRPRPNAIPRP
**A:** -0.385

###

// reported shrunken log2 fold change for each item listed
# Tested on: Escherichia coli TOP10;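 also: peptides expressed intracellularly from a pBAD plasmid library in pooled LB shake-flask culture, induced with 0.3% L-arabinose, DNA abundance read by NGS, three biological replicates, DESeq2 with apeglm shrinkage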
# assayExplanation: shrunken log2 fold change of peptide-encoding DNA abundance (4.5 h post-induction vs induction); higher = less antimicrobial activity (less host growth inhibition)
# assaySetup: time post-induction: 4.5 h; library: site-saturation at positions 5, 18, 19, 20

Study these solved cases before continuing.
1) RRIRFRPPRLPRPRPRPSLYPRP: -0.594
2) RRIRQRPPRLPRPRPRPRCAPRP: 0.385
3) RRIRPRPPRLPRPRPRPANQPRP: 0.0414

**Q:** Tell me the measured shrunken log2 fold change of RRIRSRPPRLPRPRPRPWYNPRP , please.
**A:** -0.502

**Q:** Could you share which shrunken log2 fold change value was measured for RRIRGRPPRLPRPRPRPWWQPRP ?
**A:** 0.644
